# Test system: A498 renal
# experiment_summary: NCI tumour cell line growth inhibition, 48 h
observation_type: TGI

Observe how each entry below is paired with its result.
What value of TGI has been recorded for this entry: `Nc1nc(NC(=O)C2=NS(=O)(=O)c3cc(S(N)(=O)=O)c(Cl)cc3N2)n[nH]1` > 100 µM

Need TGI, item `O=C(N/N=C/c1cc(-c2ccccc2Cl)c(-c2ccccc2Cl)o1)c1ccncc1` > 100 µM

Please look up its TGI: CCC(c1ccc(N(C)C)cc1)C1NC(=S)NC1=O (configuration not stated) > 100 µM

What TGI value was documented for this compound, `COC(=O)C(I(OS(=O)(=O)c1ccc(C)cc1)c1ccccc1)=P(c1ccccc1)(c1ccccc1)c1ccccc1` ? 44.7 µM

---
Could you share which TGI value was measured for O=C(O)CCCCCNC(=O)CCC(CN(CC(=O)OCc1ccccc1)CC(=O)OCc1ccccc1)N(CC(=O)OCc1ccccc1)CC(=O)OCc1ccccc1 (configuration not stated) ? 32.2 µM

Dear colleague, I am looking for the recorded TGI of the following compound: `Cc1ccc(-c2cn3c(nc4ccccc43)c(C)n2)cc1` > 77.5 µM

Entry `Cc1ccc(-n2cc(-c3ccc(Cl)cc3)c3c(NNC(=S)NCc4ccccc4)ncnc32)cc1` has what TGI? 82.1 µM
